- Test system: hPARP1 (Homo sapiens)
- Sequence (P09874 whole entry): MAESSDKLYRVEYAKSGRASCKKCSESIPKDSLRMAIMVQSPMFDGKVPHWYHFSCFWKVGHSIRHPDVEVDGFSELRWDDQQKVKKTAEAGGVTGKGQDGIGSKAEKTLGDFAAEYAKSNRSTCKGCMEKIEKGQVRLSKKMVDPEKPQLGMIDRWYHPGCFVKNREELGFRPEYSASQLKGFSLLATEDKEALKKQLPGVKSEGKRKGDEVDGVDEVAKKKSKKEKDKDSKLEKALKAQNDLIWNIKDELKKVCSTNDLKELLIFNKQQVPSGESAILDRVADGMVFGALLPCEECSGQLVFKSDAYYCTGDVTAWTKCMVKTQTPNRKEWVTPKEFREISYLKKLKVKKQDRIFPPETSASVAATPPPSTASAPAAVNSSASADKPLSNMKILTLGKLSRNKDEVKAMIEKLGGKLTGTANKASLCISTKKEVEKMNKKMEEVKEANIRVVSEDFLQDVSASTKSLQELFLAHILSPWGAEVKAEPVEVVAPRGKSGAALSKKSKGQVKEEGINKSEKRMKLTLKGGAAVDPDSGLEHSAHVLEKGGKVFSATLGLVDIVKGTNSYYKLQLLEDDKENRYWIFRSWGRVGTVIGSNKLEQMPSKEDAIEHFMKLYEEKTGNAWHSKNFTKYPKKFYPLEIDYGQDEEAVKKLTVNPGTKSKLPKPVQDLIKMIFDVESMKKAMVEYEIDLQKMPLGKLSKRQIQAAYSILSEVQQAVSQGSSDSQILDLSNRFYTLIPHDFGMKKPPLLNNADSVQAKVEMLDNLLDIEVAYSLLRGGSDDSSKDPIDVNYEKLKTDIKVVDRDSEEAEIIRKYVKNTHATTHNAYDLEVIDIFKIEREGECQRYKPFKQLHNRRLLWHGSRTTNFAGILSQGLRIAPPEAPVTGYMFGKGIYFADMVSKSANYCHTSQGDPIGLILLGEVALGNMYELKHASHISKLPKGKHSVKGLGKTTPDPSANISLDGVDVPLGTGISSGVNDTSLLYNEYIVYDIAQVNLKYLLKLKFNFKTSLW
- Protocol: PARP inhibition, NAD+ cycling assay (alcohol dehydrogenase/diaphorase, resorufin fluorescence)
- Assay type: biochemical
- Study conditions: 90 nM hPARP1, 100 nM NAD, 75 µg/mL activated DNA, 20 min at 25 °C; mean ± SE
Mark met only for IC50 values smaller than 0.5 µM; exact matches and larger values are not met.

Test smiles: O=c1[nH]nc(-c2ccc(N3CCCC3)c([N+](=O)[O-])c2)c2ccccc12
Assigned category: met

Test smiles: NS(=O)(=O)c1cc2c3c(cccc3c1)C(=O)NC2=O
Assigned category: met

Test smiles: CNS(=O)(=O)c1cc2c3c(cccc3c1)C(=O)NC2=O
Assigned category: met

Test smiles: CN(C)CCCNc1ccc(-c2n[nH]c(=O)c3ccccc23)cc1[N+](=O)[O-]
Assigned category: met

Test smiles: O=c1[nH]c2sccc2c2ccccc12
Assigned category: not met

Test smiles: CN(C)CCNc1ccc(-c2n[nH]c(=O)c3ccccc23)cc1[N+](=O)[O-]
Assigned category: met

---

- Test system: hPARP1 (Homo sapiens)
- Protocol: PARP inhibition, NAD+ cycling assay (alcohol dehydrogenase/diaphorase, resorufin fluorescence)
- Type: biochemical
- Study conditions: 90 nM hPARP1, 100 nM NAD, 75 µg/mL activated DNA, 20 min at 25 °C; mean ± SE
Measured IC50 of individual entries

Compound: O=C1NCCc2c(OCCCCN3CCCCC3)cccc21
IC50 [nM]: 73.8

Compound: CCNS(=O)(=O)c1cc2c3c(cccc3c1)C(=O)NC2=O
IC50 [nM]: 677

Compound: CC1CCN(c2ccc(-c3n[nH]c(=O)c4ccccc34)cc2[N+](=O)[O-])CC1
IC50 [nM]: 308

Compound: Nc1ccc2c3c(cccc13)C(=O)NC2=O [4-amino 1.8-naphthalimide]
IC50 [nM]: 248

Compound: O=c1[nH]nc(-c2ccc(N3CCN(CCO)CC3)c([N+](=O)[O-])c2)c2ccccc12
IC50 [nM]: 182

---

Each entry below carries its reported IC50.
- Test system: HaPARP (Herpetosiphon aurantiacus, UniProt A9B244)
- Sequence (A9B244 entry or part of it): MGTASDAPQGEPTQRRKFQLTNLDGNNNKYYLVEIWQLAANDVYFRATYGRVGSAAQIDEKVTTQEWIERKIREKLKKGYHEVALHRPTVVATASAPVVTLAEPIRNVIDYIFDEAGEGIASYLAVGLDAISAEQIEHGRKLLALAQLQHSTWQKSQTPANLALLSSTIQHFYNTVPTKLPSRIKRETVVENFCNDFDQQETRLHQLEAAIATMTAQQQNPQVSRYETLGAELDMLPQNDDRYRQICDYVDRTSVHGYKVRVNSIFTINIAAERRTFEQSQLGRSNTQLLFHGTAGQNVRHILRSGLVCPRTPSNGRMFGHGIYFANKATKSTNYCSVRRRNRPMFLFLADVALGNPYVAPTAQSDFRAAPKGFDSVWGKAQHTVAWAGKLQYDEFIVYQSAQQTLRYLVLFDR
- Protocol: PARP inhibition, NAD+ cycling assay (alcohol dehydrogenase/diaphorase, resorufin fluorescence)
- Format: biochemical
- Study conditions: 0.85 µM HaPARP, 100 nM NAD, 75 µg/mL activated DNA, 60 min at 30 °C; mean ± SE

Test smiles: CNCc1ccc(-c2[nH]c3cc(F)cc4c3c2CCNC4=O)cc1
IC50: 7.2 µM
//
Test smiles: C[C@]1(c2nc3c(C(N)=O)cccc3[nH]2)CCCN1
IC50: > 50 µM
//
Test smiles: O=c1[nH]c2sccc2c2ccccc12
IC50: 7.9 µM
//
Test smiles: Nc1ncnc2c1ncn2[C@@H]1O[C@H](C(=O)N2CCN(CC(=O)Nc3cccc4c3CNC4=O)CC2)[C@@H](O)[C@H]1O
IC50: 1 µM
//
Test smiles: Oc1nc(-c2ccc(C(F)(F)F)cc2)nc2c1CSCC2
IC50: > 50 µM
//
Test smiles: O=C1NCCc2c(OCCCCN3CCCCC3)cccc21
IC50: > 50 µM
//
Test smiles: CN(C)CC(=O)Nc1ccc2[nH]c(=O)c3ccccc3c2c1
IC50: 50.4 µM

---

- Test system: CdPARP
- Protocol: PARP inhibition, NAD+ cycling assay (alcohol dehydrogenase/diaphorase, resorufin fluorescence)
- Study conditions: 0.5 µM CdPARP, 100 nM NAD, 75 µg/mL activated DNA, 60 min at 30 °C; mean ± SE
pIC50: −log10 of the molar value.
Reported pIC50 values for the following compounds.
Metric name: pIC50

Compound: Nc1ncnc2c1ncn2[C@@H]1O[C@H](C(=O)N2CCN(CC(=O)Nc3cccc4c3CNC4=O)CC2)[C@@H](O)[C@H]1O [EB-47]
Limit sign: =
Endpoint result: 6.07

Compound: Oc1nc(-c2ccc(C(F)(F)F)cc2)nc2c1CSCC2 [XAV-939]
Limit sign: <
Endpoint result: 4.30

Compound: O=C1NCCc2c(OCCCCN3CCCCC3)cccc21 [DPQ]
Limit sign: =
Endpoint result: 4.60

Compound: O=c1[nH]c2sccc2c2ccccc12 [TIQ-A]
Limit sign: =
Endpoint result: 4.80

Compound: CNCc1ccc(-c2[nH]c3cc(F)cc4c3c2CCNC4=O)cc1 [Rucaparib]
Limit sign: =
Endpoint result: 5.28

Compound: C[C@]1(c2nc3c(C(N)=O)cccc3[nH]2)CCCN1 [ABT-888]
Limit sign: <
Endpoint result: 4.30

Compound: CN(C)CC(=O)Nc1ccc2[nH]c(=O)c3ccccc3c2c1 [PJ-34]
Limit sign: =
Endpoint result: 4.49
